# Tested on: MS2 coat protein
# Procedure Text: apparent KD of MS2 coat protein; designed switch direction (-1 OFF switch, 1 ON switch): -1; higher = weaker reporter binding
# Experimental Conditions: Eterna round: R95; input ligand: none
Assay Metric: apparent KD of MS2 coat protein (nM)
Please give a number only; it is taken to be in nM.

| Sequence Input | Assay Metric | Unit Label | Value Observed |
| --- | --- | --- | --- |
| AGUACUAACACGCCUGUGUUAGUACAAUAAGCUUGUGAAACAUGAGGAUCACCCAUGUCCUCAUAAGCUCGUCUUAU [salish99_TOv2_r3_077] (puzzle: Sensor v3, turn-off variant 2) | apparent KD of MS2 coat protein | nM | 15.4 |
| AGUAGGUCUACCUUGGUGGAUCUGCAUUUAUGCAGGUGAACAUGAGGAUCACCCAUGUCCUCAUUUGCUCGUCUUAU [JL turnoff v2 99.28] (puzzle: Sensor v3, turn-off variant 2) | apparent KD of MS2 coat protein | nM | 61.5 |
| CUCAAACAUGAGGAUCACCCAUGUGAGGAUAUGAUGCGAUCGUCGAAAGACGAUAGCAUCAGAAGGUACAAAUG [Fiskers Ex 1 - 23] (puzzle: Exclusion 1) | apparent KD of MS2 coat protein | nM | 54.2 |
| AGUACUAACACGCAAGUGUUAGUACAAUAAGCUUGUGAAACAUGAGGAUCACCCAUGUCCUCAUAAGCUCGUCUUAU [salish99_TOv2_r3_027] (puzzle: Sensor v3, turn-off variant 2) | apparent KD of MS2 coat protein | nM | 16.5 |

Ask: Let me know recorded apparent KD of MS2 coat protein for AAGAAGAUAGGAUAUACGAGGAGAGAAGAGAAGAAAGGAGGACAUGAGGAUCACCCAUGUAGAAGGAUCAGGAA [JR_Exclu2_Sub061] (puzzle: Exclusion 2) , thanks.
Result: 40.5

###

# Test system: MS2 coat protein
# Procedure Text: apparent KD of MS2 coat protein; designed switch direction (-1 OFF switch, 1 ON switch): -1; higher = weaker reporter binding
# Experimental Conditions: input ligand: none
Below: a set of entries, each annotated with reported apparent KD of MS2 coat protein.
Please give a number only; it is taken to be in nM.

Example results:
| Sequence Input | Unit Label | Value Observed |
| --- | --- | --- |
| GAAUAACAUGAGGAUCACCCAUGUUAGGAUAUGACGUCGUUUAGUCUUUAAACGAGCGUUAGAAGGAACAGGUG [Eternabot (L1) Solution 11] (Eterna round: R97, puzzle: Exclusion 1) | nM | 56.8 |
| CUGAGGUAGCGGUCCUAUGACAUGAGGAUCACCCAUGUACCUUGCUACAAGCUUUUUGCUCGUCUUAUGAUUCUCGG [JL Atriat mod 8] (Eterna round: R96, puzzle: Sensor v3, turn-off variant 1) | nM | 82.7 |
| GGGUGUCGAGUUAGGAUAUCGAUGCCGUAACGGCUCGAGAAGGGACUUGAGGAUCACCCAAGUCUGGUCGAGGC [Rierariis] (Eterna round: R97, puzzle: Brourd's mod of Exclusion 4) | nM | 18.4 |
| GGAUUCUCGCAAGGAUAUCGCUUACAUCCUAAGCGAGAAGGUGCUACCAACUUGAGGAUCACCCAAGUGACUUGGGCCUAAAUA [Mutated MS2 EX1.27] (Eterna round: R96, puzzle: Exclusion NG 1) | nM | 62.9 |
| UACCGUGGUUAGGAUAUACCGUGACACCGCUGAGUAGAAGGAACCACAUGAGGAUCACCCAUGUAAUAUGAAGG [Eternabot (L2) Solution 94] (Eterna round: R97, puzzle: Exclusion 6) | nM | 51.9 |

Ask: Let me know recorded apparent KD of MS2 coat protein for AUCUGUGAGCGAGGAUAUCUGCUGUUGUCGGUCGGAGAAGGCGCGGACAGAACAUGAGGAUCACCCAUGUGUAUGGGCGGCCUC [Isvetima] (Eterna round: R96, puzzle: Exclusion NG 1) , thanks.
Result: 99.6

Ask: Let me know recorded apparent KD of MS2 coat protein for AAUAACGAGCCGAUCCUCCACAUGAGGAUCACCCAUGUGUUCGUCUUGUAAAGUACUAUCACGAAAGUGAUAGUACA [mod jandersonlee] (Eterna round: R97, puzzle: Sensor, turn-off variant 1) , thanks.
Result: 1040

Ask: Let me know recorded apparent KD of MS2 coat protein for GCACGAAGUGGAGGAUAUCUGGGCGAGGAGCGCAGAGAAGGCCACAUGAGGAUCACCCAUGUGUUCCACGGAUCGCAAACGUGC [exng1 ex2] (Eterna round: R96, puzzle: Exclusion NG 1) , thanks.
Result: 20.9

Ask: Let me know recorded apparent KD of MS2 coat protein for UGUUCGCGAGGAUAUGCAUUCGAGUCCAUUACGUGUCUGGGACUUGAGGAUCACCCAAGUAGAAGGCGUCUCAC [salish99_ex2_r4_645] (Eterna round: R97, puzzle: Exclusion 2) , thanks.
Result: 122

Ask: Let me know recorded apparent KD of MS2 coat protein for UUAAUUAAUUAUAUAAGAUCACAUGAGGAUCACCCAUGUAUAUAGGAUAUCAGCUCGAUUAGAGCUGAGAAGGAUAUACAAUAU [ExNG3/3-B1] (Eterna round: R96, puzzle: Exclusion NG 3) , thanks.
Result: 147

Ask: Let me know recorded apparent KD of MS2 coat protein for GGACCGAGUGUGAGGAUAUGCUGGUCCUUGGAUCAGCAGAAGGCACAUGAGGAUCACCCAUGUGGAGACGGUCC [Eli bmx4 4.33] (Eterna round: R97, puzzle: Brourd's mod of Exclusion 4) , thanks.
Result: 87.4

Ask: Let me know recorded apparent KD of MS2 coat protein for ACUGGUGCAGGAUAUACAAUCGUGCUUCGGCACGUAAGGUCACAUGAGGAUCACCCAUGUAGAAGGGCACCAGU [E2/2-D1] (Eterna round: R97, puzzle: Exclusion 2) , thanks.
Result: 26.2

Ask: Let me know recorded apparent KD of MS2 coat protein for AGAGUGCUGCGAGGAUAUACAUGAGGAUCACCCAUGUUUUCCUGUGAGGCAAAGCCUCACAGGAUGUAGAAGGCGCAGUACUCA [Mat - Exclusion NG 2 - Mod of JL - D39] (Eterna round: R96, puzzle: Exclusion NG 2) , thanks.
Result: 17.7

Ask: Let me know recorded apparent KD of MS2 coat protein for UAGACCUCGUCAGGAUAUCCAGGUUCUUCGCCCGGAGAAGGGACAUGAGGAUCACCCAUGUAGGAGAGCAUCGCUGUCGAGCAA [Redixeri] (Eterna round: R96, puzzle: Exclusion NG 1) , thanks.
Result: 18.3

Ask: Let me know recorded apparent KD of MS2 coat protein for GGUGGACAUGAGGAUCACCCAUGUGAGGAUAUCGGCUAUCUUCUCGCUGUCGGUUGCUCGAGAAGGCACAUUGU [Exclusion 1 V94] (Eterna round: R96, puzzle: Exclusion 1) , thanks.
Result: 64.9

Ask: Let me know recorded apparent KD of MS2 coat protein for GCAGCGUAUGUAGGAUAUCGGUCAGUUUCUGAUCGAGAAGGACAUGAGGAUCACCCAUGUAUAUUCCGUCGUGAGACGGGCUGC [JL ENG1 3.69] (Eterna round: R96, puzzle: Exclusion NG 1) , thanks.
Result: 18.4

Ask: Let me know recorded apparent KD of MS2 coat protein for CUGUACUGAGGAUAUACAUGAGGAUCACCCAUGUGAUUUGGUGCACGCGUACGUGUACGUAGAAGGCAGUACAG [Mat - Exclusion 3 - Eli Mod - D39] (Eterna round: R97, puzzle: Exclusion 3) , thanks.
Result: 25.5

Ask: Let me know recorded apparent KD of MS2 coat protein for GAUCAUGCAGGAUAUACAUAAACCAUGAAAACAUGGAUCAAACAUGAGGAUCACCCAUGUAGAAGGGCAUGAUC [Omei Ex2 A20] (Eterna round: R97, puzzle: Exclusion 2) , thanks.
Result: 24.1

###

# Tested on: K4 kissing-loop RNA reporter;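 note: bound reporter read as fluorescence of individual clusters on recovered sequencing chips by microscopy, with normalized cluster intensities fitted with a binding model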
# Procedure Text: apparent KD of K4 kissing-loop reporter; higher = weaker reporter binding
# Experimental Conditions: Eterna round: R107; input ligand: none
Below: a set of entries, each annotated with reported apparent KD of K4 kissing-loop reporter.
Please give a number only; it is taken to be in nM.

| Sequence Input | Unit Label | apparent KD of K4 kissing-loop reporter |
| --- | --- | --- |
| UGAUACCAGACGGCCGCCACUCCCGUAAGUCAAAGACUUACGAAGAGAGUCGUCCAGUGAUGUUGGAGGACCGGGUCUGGUAUCU [FiskerMod 12 - Jieux - Exclusion - Tryptophan B] | nM | 163 |
| UAUUUAAUGUCAGGAUAUCGUAUACGAGUGAUGUUCGUAUUUCUACUAUAGAUUAUUUAAAUUUUUCGAGAAGGGACAAUAUUUA [KL-SSFMN-B4] | nM | 193 |
| CAAGGACGGCCGUAGGCAUACCGUCGAUUCAAGGAUAUCAAGAGAAUGAGAAGGUGAAGUUUAUACAGUGAUGUUGCUAUAGAGA [theeternabot_sameState_KL_FMN_A_6] | nM | 168 |
| GGACGACAGUCGGCCGCCACUCACAGCCGAGUGAUGUUCGGGAUUGUAGCGGAGUGAUGUUUCGCGAGGACCGGGACUGCAGUCC [Same State Typtophan B GF 27] | nM | 184 |

Ask: Let me know recorded apparent KD of K4 kissing-loop reporter for CGCAGUGAUGUUGCGAGUAGCUACAGGGAAGGAGCGUGCUAGAGCACAGGUAGGUCGCCCUCGGGCAGUGAUGUUGCCAAAGGUU [Exclusion ARginine A GF 16] , thanks.
Result: 79.8
